- Tested on: production of prostaglandin E2 by human fibroblasts
- ASSAY DETAILS: Inhibition of Production of Prostaglandin E2 in Human Fibroblasts (IL-1 stimulation)
- Assay type: cell-based
- ASSAY CONDITIONS: Fibroblast; human fibroblasts under stimulation with IL-1
PARAMETER: log10 IC50 (log10 of the value in nM)
Use the decimal logarithm of IC50 (nM).

As a guide, the following entries are already answered.
SMILES CODE: O=C1NC(=O)/C(=C/c2ccc(C(=O)NC[C@@H]3C[C@@H](OCc4ccccc4Br)CN3C(=O)c3ccccc3C(=O)c3ccc(F)cc3)cc2)S1
PARAMETER: log10 IC50
OBSERVED: 2.66

SMILES CODE: CC(C)c1ccccc1-c1ccccc1O[C@@H]1C[C@@H](CNC(=O)c2ccc(/C=C3\SC(=O)NC3=O)cc2)N(C(=O)c2ccccc2C(=O)c2ccc(F)cc2)C1
PARAMETER: log10 IC50
OBSERVED: 3.66

SMILES CODE: COc1ccccc1-c1ccccc1O[C@@H]1C[C@@H](CNC(=O)c2ccc(/C=C3\SC(=O)NC3=O)cc2)N(C(=O)c2ccccc2C(=O)c2ccc(F)cc2)C1
PARAMETER: log10 IC50
OBSERVED: 3.04

SMILES CODE: O=C1NC(=O)/C(=C/c2ccc(C(=O)NC[C@@H]3C[C@@H](OCc4ccccc4-c4ccsc4)CN3C(=O)c3ccccc3C(=O)c3ccc(F)cc3)cc2)S1
PARAMETER: log10 IC50
OBSERVED: 2.63

SMILES CODE: Cc1ccc(C(=O)c2ccccc2C(=O)N2C[C@H](OCc3ccccc3-c3ccccc3)C[C@H]2CNC(=O)c2ccc(/C=C3\SC(=S)NC3=O)cc2)cc1
PARAMETER: log10 IC50
OBSERVED: 3.08

Each compound below has a reported value. Please supply its log10 IC50.
1. O=C1NC(=S)S/C1=C\c1ccc(NC(=O)[C@@H]2C[C@@H](SCc3ccccc3-c3ccccc3)CN2C(=O)c2ccccc2C(=O)c2ccc(F)cc2)s1
2. COc1cccc(-c2ccccc2)c1O[C@@H]1C[C@@H](CNC(=O)c2ccc(/C=C3\SC(=O)NC3=O)cc2)N(C(=O)c2ccccc2C(=O)c2ccc(F)cc2)C1
3. O=C1NC(=O)/C(=C/c2ccc(C(=O)NC[C@@H]3C[C@@H](OCc4ccc(-c5ccccc5)cc4)CN3C(=O)c3ccccc3C(=O)c3ccccc3)cc2)S1
4. O=C1NC(=O)/C(=C/c2ccc(C(=O)NC[C@@H]3C[C@@H](Oc4ccccc4-c4cccc(-c5ccccc5)c4)CN3C(=O)c3ccccc3C(=O)c3ccc(F)cc3)cc2)S1
5. O=C1NC(=O)/C(=C/c2ccc(S(=O)(=O)NC[C@@H]3C[C@@H](OCc4ccccc4-c4ccccc4)CN3C(=O)c3ccccc3C(=O)c3ccc(F)cc3)s2)S1

3.72
2.30
2.32
3.23
3.11
